Method: Storage stability in sealed vial at 50° C. for 4 weeks, % residue
Assay type: physicochemical
Condition Set: 40320 min
Procedure: One sample each of the following compounds was stored in a sealed vial at 50° C. for 4 weeks. […]
Structures can show the parent of a compound that is named as a salt.
Tick yes if % Residue is 80% or greater. Tick no if % Residue is less than 80%.

Reported % Residue at or above 80%? CN(C)CCn1nnnc1SCC1=C(C(=O)O)N2C(=O)[C@@H](NC(=O)Cc3csc(N)n3)[C@H]2SC1 [Monohydrochloride (lyophilizate), reference compound]
no

Reported % Residue at or above 80%? CN(C)CCn1nnnc1SCC1=C(C(=O)O)N2C(=O)[C@@H](NC(=O)Cc3csc(N)n3)[C@H]2SC1 [Sodium salt (lyophilizate), reference compound]
no

Reported % Residue at or above 80%? CN(C)CCn1nnnc1SCC1=C(C(=O)O)N2C(=O)[C@@H](NC(=O)Cc3csc(N)n3)[C@H]2SC1 [Example 1-(4)]
yes

Reported % Residue at or above 80%? CN(C)CCn1nnnc1SCC1=C(C(=O)O)N2C(=O)[C@@H](NC(=O)Cc3csc(N)n3)[C@H]2SC1 [Example 1-(3)]
yes

Reported % Residue at or above 80%? CN(C)CCn1nnnc1SCC1=C(C(=O)O)N2C(=O)[C@@H](NC(=O)Cc3csc(N)n3)[C@H]2SC1 [Example 4-(2)]
yes

Hey, just so you know, these numbers are from patent US4146710A.
